Target: Neutrophil collagenase (Homo sapiens, UniProt P22894)
Sequence (P22894 whole entry, the tested form may be a part): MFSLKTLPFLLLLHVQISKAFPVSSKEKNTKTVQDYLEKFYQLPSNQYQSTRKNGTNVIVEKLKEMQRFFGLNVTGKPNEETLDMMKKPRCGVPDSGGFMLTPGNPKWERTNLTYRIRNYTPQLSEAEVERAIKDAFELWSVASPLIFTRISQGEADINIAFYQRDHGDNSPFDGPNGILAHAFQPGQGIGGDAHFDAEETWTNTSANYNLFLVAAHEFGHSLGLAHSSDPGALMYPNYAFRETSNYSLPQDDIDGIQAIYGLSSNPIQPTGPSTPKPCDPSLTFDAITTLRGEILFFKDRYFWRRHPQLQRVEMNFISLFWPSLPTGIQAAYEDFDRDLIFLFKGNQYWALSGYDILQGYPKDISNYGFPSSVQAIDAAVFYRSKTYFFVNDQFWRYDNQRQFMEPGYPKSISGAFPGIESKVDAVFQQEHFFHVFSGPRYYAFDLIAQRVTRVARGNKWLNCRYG
Assay: Inhibition of MMP8 catalytic domain using Mca-Pro-Leu-Gly-Leu-Dpa-Ala-Arg-NH2 as substrate preincubated for 1 hr prior substrate addition measured after 3 hrs by spectrofluorimetry
As shown below, each of these compounds has a reported IC50 value.

{"columns": ["Compound", "IC50"],
 "data": [
  ["O=C(NO)[C@@H]1CS(=O)(=O)CN1S(=O)(=O)c1ccc(Oc2ccc(Cl)cc2)cc1", "4 nM"],
  ["O=C(NO)[C@@H]1C[S+]([O-])CN1S(=O)(=O)c1ccc(-c2ccccc2)cc1 (stereo partly drawn)", "400 nM"],
  ["O=C(NO)[C@@H]1CS(=O)(=O)CN1S(=O)(=O)c1ccc(-c2ccccc2)cc1", "100 nM"]
]}
